These data points were gathered from patent US20220226480A1.

Entries and their PdI values follow.
Assay: Particle size and polydispersity of LNP containing pro-drug (dynamic light scattering)
Type: physicochemical
Settings: LNP; pro-drug concentration 98 %
measure name: PdI

query smiles | assay result
CCCCCCCCCCCCCCCCCC(=O)O[C@@H](C/C=C\CCCCCCCCOC(=O)CCC(=O)OCC(=O)[C@@]1(O)[C@H](C)C[C@H]2[C@@H]3CCC4=CC(=O)C=C[C@]4(C)[C@@]3(F)[C@@H](O)C[C@@]21C)CCCCCC | 0.02
CCCCC/C=C\C/C=C\C/C=C\C/C=C\CCCC(=O)O[C@@H](C/C=C\CCCCCCCCOC(=O)CCC(=O)OCC(=O)[C@@]1(O)[C@H](C)C[C@H]2[C@@H]3CCC4=CC(=O)C=C[C@]4(C)[C@@]3(F)[C@@H](O)C[C@@]21C)CCCCCC | 0.04
CC/C=C\C/C=C\C/C=C\CCCCCCCC(=O)O[C@@H](C/C=C\CCCCCCCCOC(=O)CCC(=O)OCC(=O)[C@@]1(O)[C@H](C)C[C@H]2[C@@H]3CCC4=CC(=O)C=C[C@]4(C)[C@@]3(F)[C@@H](O)C[C@@]21C)CCCCCC | 0.05
CCCCCC[C@H](C/C=C\CCCCCCCCOC(=O)CCC(=O)OCC(=O)[C@@]1(O)[C@H](C)C[C@H]2[C@@H]3CCC4=CC(=O)C=C[C@]4(C)[C@@]3(F)[C@@H](O)C[C@@]21C)OC(=O)CCCCC | 0.014

====

Experiment: Particle size and polydispersity of LNP containing pro-drug (dynamic light scattering)
Type: physicochemical
Settings: LNP; pro-drug concentration 10 %

query smiles | PdI
CCCCC/C=C\C/C=C\CCCCCCCC(=O)O[C@@H](C/C=C\CCCCCCCCOC(=O)CCC(=O)OCC(=O)[C@@]1(O)[C@H](C)C[C@H]2[C@@H]3CCC4=CC(=O)C=C[C@]4(C)[C@@]3(F)[C@@H](O)C[C@@]21C)CCCCCC | 0.076
CCCCCC[C@H](C/C=C\CCCCCCCCOC(=O)CCC(=O)OCC(=O)[C@@]1(O)[C@H](C)C[C@H]2[C@@H]3CCC4=CC(=O)C=C[C@]4(C)[C@@]3(F)[C@@H](O)C[C@@]21C)OC(=O)CCCCC | 0.064
CCCCCC[C@H](C/C=C\CCCCCCCCOC(=O)CC/C(C)=C/Cc1c(O)c2c(c(C)c1OC)COC2=O)OC(=O)CCCCC | 0.085
CCCCC/C=C\C/C=C\CCCCCCCC(=O)O[C@@H](C/C=C\CCCCCCCCOC(=O)CC/C(C)=C/Cc1c(O)c2c(c(C)c1OC)COC2=O)CCCCCC | 0.069
CCCCCC[C@H](C/C=C\CCCCCCCCOC(=O)c1ccccc1OC(C)=O)OC(=O)CCCCC | 0.06

====

Assay: Particle size and polydispersity of LNP containing pro-drug (dynamic light scattering)
Type: physicochemical
Conditions: LNP; pro-drug concentration 99 %
Each entry below carries its reported PdI.
measure name: PdI

compound | assay result
CCCCC/C=C\C/C=C\CCCCCCCC(=O)O[C@@H](C/C=C\CCCCCCCCOC(=O)CCC(=O)OCC(=O)[C@@]1(O)[C@H](C)C[C@H]2[C@@H]3CCC4=CC(=O)C=C[C@]4(C)[C@@]3(F)[C@@H](O)C[C@@]21C)CCCCCC | 0.045
CCCCCC[C@H](C/C=C\CCCCCCCCOC(=O)CCC(=O)OCC(=O)[C@@]1(O)[C@H](C)C[C@H]2[C@@H]3CCC4=CC(=O)C=C[C@]4(C)[C@@]3(F)[C@@H](O)C[C@@]21C)OC(=O)CCCCC | 0.011
CCCCC/C=C\C/C=C\CCCCCCCC(=O)O[C@@H](C/C=C\CCCCCCCCOC(=O)c1ccccc1OC(C)=O)CCCCCC | 0.045
CCCCC/C=C\C/C=C\CCCCCCCC(=O)OC(CCCCCCCC)C(CCCCCCCC(=O)OCC(=O)[C@@]1(O)[C@H](C)C[C@H]2[C@@H]3CCC4=CC(=O)C=C[C@]4(C)[C@@]3(F)[C@@H](O)C[C@@]21C)OC(=O)CCCCCCC/C=C\C/C=C\CCCCC (stereo partly shown) | 0.026
